# reported MIC; entries follow
- Test system: Proteus morg. 932
Readout: MIC (µg/mL)

>>> obs_value("O=C(O)c1cn(C2CC2)c2c(F)c(N3CCOCC3)c(F)cc2c1=O [Example 7]")
60
>>> obs_value("O=C(O)c1cn(C2CC2)c2c(F)c(N3CCN(CC4CC4)CC3)c(F)cc2c1=O [Example 15]")
60
>>> obs_value("O=C(O)c1cn(C2CC2)c2c(F)c(N3CCC(O)CC3)c(F)cc2c1=O [Example 8]")
30
>>> obs_value("CC1CN(c2c(F)cc3c(=O)c(C(=O)O)cn(C4CC4)c3c2F)CC(C)O1 (stereo not shown) [Example 10]")
1000
>>> obs_value("CCN1CCN(c2c(F)cc3c(=O)c(C(=O)O)cn(C4CC4)c3c2F)CC1C (stereo not shown) [Example 14]")
30
>>> obs_value("CC(C)N1CCN(c2c(F)cc3c(=O)c(C(=O)O)cn(C4CC4)c3c2F)CC1.I [Example 12]")
60
>>> obs_value("O=C(O)c1cn(C2CC2)c2c(F)c(N3CCCC3)c(F)cc2c1=O [Example 11]")
500
